# method.notes: Partition coefficient (logD7.0)
# Format: physicochemical
# run.conditions: octanol/water, pH 7
Examples of compounds with documented logD follow.

Sample records with logD:
IN: Tell me the measured logD of COC(=O)C(C)NP(=O)(OC[C@@H]1C=C[C@H](n2cc(C)c(=O)[nH]c2=O)O1)Oc1cccc(Cl)c1 (stereo partly specified) , please.
OUT: 1.42

IN: Tell me the measured logD of COC(=O)C(C)NP(=O)(OC[C@@H]1C=C[C@H](n2cc(C)c(=O)[nH]c2=O)O1)Oc1ccc(Br)cc1 (stereo partly specified) , please.
OUT: 1.6

IN: Tell me the measured logD of COC(=O)C(C)NP(=O)(OC[C@@H]1C=C[C@H](n2cc(C)c(=O)[nH]c2=O)O1)Oc1ccccc1 (stereo partly specified) , please.
OUT: 1.04

IN: Tell me the measured logD of COC(=O)C(C)NP(=O)(OC[C@@H]1C=C[C@H](n2cc(C)c(=O)[nH]c2=O)O1)Oc1cccc(F)c1 (stereo partly specified) , please.
OUT: 1.08

IN: Tell me the measured logD of COC(=O)C(C)NP(=O)(OC[C@@H]1C=C[C@H](n2cc(C)c(=O)[nH]c2=O)O1)Oc1ccc(C(C)=O)cc1 (stereo partly specified) , please.
OUT: 0.9

More entries:
IN: Tell me the measured logD of COC(=O)C(C)NP(=O)(OC[C@@H]1C=C[C@H](n2cc(C)c(=O)[nH]c2=O)O1)Oc1cccc(I)c1 (stereo partly specified) , please.
OUT: 1.78

IN: Tell me the measured logD of COC(=O)C(C)NP(=O)(OC[C@@H]1C=C[C@H](n2cc(C)c(=O)[nH]c2=O)O1)Oc1ccc(C(F)(F)F)cc1 (stereo partly specified) , please.
OUT: 1.77

IN: Tell me the measured logD of COC(=O)C(C)NP(=O)(OC[C@@H]1C=C[C@H](n2cc(C)c(=O)[nH]c2=O)O1)Oc1ccc(C#N)cc1 (stereo partly specified) , please.
OUT: 0.91

IN: Tell me the measured logD of COC(=O)C(C)NP(=O)(OC[C@@H]1C=C[C@H](n2cc(C)c(=O)[nH]c2=O)O1)Oc1cccc(C(C)=O)c1 (stereo partly specified) , please.
OUT: 0.92

IN: Tell me the measured logD of COC(=O)C(C)NP(=O)(OC[C@@H]1C=C[C@H](n2cc(C)c(=O)[nH]c2=O)O1)Oc1ccc(F)cc1 (stereo partly specified) , please.
OUT: 1.1

---

# System: Human immunodeficiency virus 2
# method.notes: Concentration required to protect CEM/0 cells against the cytopathicity of HIV-2 by 50%
# run.conditions: Human immunodeficiency virus 2, CCRF-CEM
Examples of compounds with documented EC50 follow.
Only the number, expressed in nM, is required.

Sample records with EC50:
IN: Tell me the measured EC50 of COC(=O)C(C)NP(=O)(OC[C@@H]1C=C[C@H](n2cc(C)c(=O)[nH]c2=O)O1)Oc1ccc(Cl)cc1 (stereo partly drawn) , please.
OUT: 7

IN: Tell me the measured EC50 of COC(=O)C(C)NP(=O)(OC[C@@H]1C=C[C@H](n2cc(C)c(=O)[nH]c2=O)O1)Oc1ccc(Br)cc1 (stereo partly drawn) , please.
OUT: 16

Alright, here's another compound for you.
IN: Tell me the measured EC50 of COC(=O)C(C)NP(=O)(OC[C@@H]1C=C[C@H](n2cc(C)c(=O)[nH]c2=O)O1)Oc1ccccc1 (stereo partly drawn) , please.
OUT: 75
